Molecular target: T1, monomeric RANK (UniProt O35305 31-214)
T1 sequence (looked up): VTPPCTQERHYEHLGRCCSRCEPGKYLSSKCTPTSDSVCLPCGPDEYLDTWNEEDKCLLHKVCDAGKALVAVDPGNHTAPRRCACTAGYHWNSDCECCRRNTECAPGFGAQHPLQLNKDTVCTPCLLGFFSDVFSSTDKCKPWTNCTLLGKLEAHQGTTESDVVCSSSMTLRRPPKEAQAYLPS
Assay: SPR
Each entry below carries its recorded kon.
Number only, in M⁻¹ s⁻¹; omit the unit.

# input Fill blank: measured kon of the binder RANKL K194E/Q236H (ligand, Homotrimer; limits by convention (mouse RANKL ectodomain core)) KPEAQPFAHLTINAASIPSGSHKVTLSSWYHDRGWAEISNMTLSNGKLRVNQDGFYYLYANISFRHHETSGSVPTDYLHLMVYVVKTSEKIPSSHNLMKGGSTKNWSGNSEFHFYSINVGGFFKLRAGEEISIQVSNPSLLDPDQDATYFGAFKVQDID is ____.
# output 174000

# input Could you do the same for RANKL K194E (ligand, Homotrimer; limits by convention (mouse RANKL ectodomain core). Species inferred: the printed numbering fits mouse) KPEAQPFAHLTINAASIPSGSHKVTLSSWYHDRGWAEISNMTLSNGKLRVNQDGFYYLYANISFRHHETSGSVPTDYLQLMVYVVKTSEKIPSSHNLMKGGSTKNWSGNSEFHFYSINVGGFFKLRAGEEISIQVSNPSLLDPDQDATYFGAFKVQDID , please?
# output 113000

# input Could you do the same for RANKL K194E/Q236H/F269Y (ligand, Homotrimer; limits by convention (mouse RANKL ectodomain core)) KPEAQPFAHLTINAASIPSGSHKVTLSSWYHDRGWAEISNMTLSNGKLRVNQDGFYYLYANISFRHHETSGSVPTDYLHLMVYVVKTSEKIPSSHNLMKGGSTKNWSGNSEYHFYSINVGGFFKLRAGEEISIQVSNPSLLDPDQDATYFGAFKVQDID , please?
# output 167000

# input Could you do the same for RANKL Q236H (ligand, Homotrimer; limits by convention (mouse RANKL ectodomain core)) KPEAQPFAHLTINAASIPSGSHKVTLSSWYHDRGWAKISNMTLSNGKLRVNQDGFYYLYANISFRHHETSGSVPTDYLHLMVYVVKTSEKIPSSHNLMKGGSTKNWSGNSEFHFYSINVGGFFKLRAGEEISIQVSNPSLLDPDQDATYFGAFKVQDID , please?
# output 300000

Values compiled from paper PMC4581524.
